target: T1, HLA-A*02:01 (human); test: REVEAL MHC-peptide binding assay, recombinant HLA
T1 construct: recombinant MHC class I molecule incubated with the synthetic peptide (REVEAL, ProImmune)
ASSAY ENDPOINT: In Vitro Score

Prompt: Dear colleague, I am looking for the recorded In Vitro Score of the following binder: FWVQRGRKK (synthetic 9-mer variant; the entry already carries the change)
Response: 5.2 % of positive control peptide

Prompt: Quick one: In Vitro Score for WVKRGLKKL (synthetic 9-mer variant; the entry already carries the change) ?
Response: 24.5 % of positive control peptide

Prompt: Please look up its In Vitro Score: VAFIIFWVH (synthetic 9-mer variant; the entry already carries the change)
Response: 3.1 % of positive control peptide

Prompt: Which In Vitro Score value belongs to WVHRGRKKL (synthetic 9-mer variant; the entry already carries the change) ?
Response: 1.6 % of positive control peptide

Prompt: In Vitro Score for WVKRGRKKS (synthetic 9-mer variant; the entry already carries the change) ?
Response: 3.9 % of positive control peptide

Prompt: Name the reported In Vitro Score value associated with the binder FWVQRGAKK (synthetic 9-mer variant; the entry already carries the changes)
Response: 2.2 % of positive control peptide

Prompt: // query In Vitro Score value for entry IIFWVQRGS (synthetic 9-mer variant; the entry already carries the changes)
Response: 22.4 % of positive control peptide

Prompt: In Vitro Score for FWVQRGSKK (synthetic 9-mer variant; the entry already carries the changes) ?
Response: 0.8 % of positive control peptide
